Source: paper PMC4376724

The reader will find reported INF-γ secretion range values listed item by item below.
test system: PBMCs from asymptomatic HLA-A*02:01 Chagas disease patients; assay: HLA-A*02:01 restriction assay: peptide-pulsed K562-A2 cells as APC, IFN-γ secretion by patient PBMC; format: cell-based, human; conditions: range among patients with a positive response; K562-A2 pulsed with 1 mM peptide 1 h, 30 h co-culture; K562 level subtracted

Solved entries (count: 3):
For ALQVTNHRYL [TcCA-2_657-666] , what is its reported INF-γ secretion range? 6.1 to 6.7 pg/mL

Another sequence to look at: TVFDASRSTV [TcCA-2_442-451] 5.8 to 6.9 pg/mL

Also check ALRNLRVFL [TcCA-2_607-615] 6.4 to 15.1 pg/mL

// next item, INF-γ secretion range requested
// lookup INF-γ secretion range for AAAGDKLSL [TcCA-2_273-281] 8.6 pg/mL

----------
system: PBMC from HLA-A*02:01 Chagas disease patients and healthy donors; assay: Granzyme B ELISPOT in PBMC; type: cell-based, human; settings: PBMC of patient CCC I 770, 1 μM peptide, 30 h, non-peptide control spots subtracted
Measurement Label: GzB (SFC/10^6)
Give a bare numeral; the unit SFC/10^6 is implied.

Reference set, count: 2
Given the sequence ALQVTNHRYL [TcCA-2_657-666] , what is its reported GzB? -7

Now consider AAAGDKLSL [TcCA-2_273-281] . -7

Others:
Given TVFDASRSTV [TcCA-2_442-451] , state its recorded GzB. 13

// next record ALRNLRVFL [TcCA-2_607-615] 0

----------
test system: PBMC from HLA-A*02:01 Chagas disease patients and healthy donors; test: Cytokine secretion test (Bio-Plex multiplex immunoassay) in PBMC supernatants; format: cell-based, human; conditions: PBMC of patient CCC I 861; 1 μM peptide, 30 h; non-peptide control subtracted
Measurement Label: IL6 (pg/mL)
Enter your answer as a number in pg/mL; do not include the unit.

For orientation, consider the following solved cases.
What does the record list as IL6 for ALQVTNHRYL [TcCA-2_657-666] ? -4

Now the same for ALRNLRVFL [TcCA-2_607-615] -7

Also check TVFDASRSTV [TcCA-2_442-451] -4

Now look at this entry.
Param item = AAAGDKLSL [TcCA-2_273-281] ; retrieve measured IL6. -4

----------
Documented IFNγ across a set of sequences
tested on: PBMC from HLA-A*02:01 Chagas disease patients and healthy donors; test: Cytokine secretion test (Bio-Plex multiplex immunoassay) in PBMC supernatants; format: cell-based, human; details: PBMC of subject HD 001; 1 μM peptide, 30 h; non-peptide control subtracted
Hi! Could you send only the number? It should be in pg/mL, unit omitted.

Sample answers from the record:
Entry under review: TVFDASRSTV [TcCA-2_442-451] . Reported IFNγ? 4

What about this sequence? ALRNLRVFL [TcCA-2_607-615] 1

Next entry: AAAGDKLSL [TcCA-2_273-281] 6

Would you kindly look at the next entry?
Given the entry ALQVTNHRYL [TcCA-2_657-666] , report its measured IFNγ. -2

----------
We begin with a simple list: items and their reported TNFα.
tested on: PBMC from HLA-A*02:01 Chagas disease patients and healthy donors; assay: Cytokine secretion test (Bio-Plex multiplex immunoassay) in PBMC supernatants; assay type: cell-based, human; conditions: PBMC of patient IND 917; 1 μM peptide, 30 h; non-peptide control subtracted
Respond with the bare value in pg/mL.

Field: TNFα (PBMC from HLA-A*02:01 Chagas disease patients and healthy donors). Entry: ALQVTNHRYL [TcCA-2_657-666] -17

Others:
Return TNFα measured with PBMC from HLA-A*02:01 Chagas disease patients and healthy donors given this sequence: AAAGDKLSL [TcCA-2_273-281] 11

Then what about the sequence TVFDASRSTV [TcCA-2_442-451] ? -4

How about this sequence: ALRNLRVFL [TcCA-2_607-615] -3
